# Assayed System: Sa-ClpP (Staphylococcus aureus, UniProt Q2G036)
# Construct: made in house; host or cells: E. coli BL21 (DE3)
# Sequence (Q2G036 whole entry): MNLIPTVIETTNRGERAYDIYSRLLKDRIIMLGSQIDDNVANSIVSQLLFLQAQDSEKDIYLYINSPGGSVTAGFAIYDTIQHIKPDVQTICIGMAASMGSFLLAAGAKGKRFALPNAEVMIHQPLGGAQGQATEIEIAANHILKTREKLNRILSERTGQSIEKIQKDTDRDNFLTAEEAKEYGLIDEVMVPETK
# Experiment Notes: ADEP displacement fluorescence polarization assay
# Assay type: binding, S. aureus
# Protocol Conditions: 1 μM Sa-ClpP, 50 nM FP probe ADEP 2591; read-out: ADEP Displacement IC50
Listing: pIC50 of selected compounds
Expect pIC50 as a plain number equal to -log10 of the molar concentration.

Cc1ccc(NC(=O)N[C@@H](Cc2cc(F)cc(F)c2)C(=O)N[C@H]2COC(=O)[C@@H]3C[C@@H](C)CN3C(=O)[C@H](C)NC(=O)[C@@H]3CCCCN3C(=O)[C@@H]3CCCN3C2=O)cc1; 5.07
C[C@@H]1C[C@H]2C(=O)OC[C@H](NC(=O)[C@H](Cc3ccccc3)NC(=O)Nc3ccccc3Cl)C(=O)N3CCC[C@H]3C(=O)N3CCCC[C@H]3C(=O)N[C@@H](C)C(=O)N2C1; 3.89

Incoming: // query pIC50 value for entry `CCc1ccc(NC(=O)N[C@@H](Cc2ccccc2)C(=O)N[C@H]2COC(=O)[C@@H]3C[C@@H](C)CN3C(=O)[C@H](C)NC(=O)[C@@H]3CCCCN3C(=O)[C@@H]3CCCN3C2=O)cc1`
Outgoing: 4.54

Incoming: // lookup pIC50 for `C[C@H]1C[C@H]2C(=O)O[C@@H](C)[C@H](NC(=O)[C@H](Cc3cc(F)cc(F)c3)NC(=O)Nc3ccc(OC(F)(F)F)cc3)C(=O)N3CCC[C@H]3C(=O)N3CCCC[C@H]3C(=O)N[C@@H](C)C(=O)N2C1`
Outgoing: 5.05
